- protocol.details: Oral tolerance (acute toxicity, LD50)
- test.parameters: mouse, in vivo, mice, 8th day after treatment, Litchfield-Wilcoxon
- Method: After oral administration of the test compounds to mice of strain NMR-I, weight 15-20 g, the acute toxicity was determined. LD50 values were calculated following Litchfield-Wilcoxon (J. Pharmak. Exp. Therap. 96, 99, 1949) and pertain to the 8th day after treatment.
measure: LD50 at 192 h (mg/kg)

* CCOC(=O)C(C)(C)Oc1ccc(Cl)cc1 [clofibrate, reference compound] | 1900

====

inhibition in vivo at 100 mg/kg values by entry
- Tested on: serum lipids
- protocol.details: Lipid-lowering action in normolipemic rats
- Type: in vivo
- test.parameters: Rattus norvegicus, 72 h; 4 × 100 mg/kg oral over 3 days, male Wistar rats, vs controls, X ± Sx; read-out: % Lowering TG (triglycerides)
measure: inhibition in vivo at 100 mg/kg (%)

• CC(C)(C)c1ccc(OCC(O)COc2ccc(C(=O)NO)cc2)cc1 (stereo not drawn) [Compound 108] = 77.8
• COC(=O)C=Cc1ccc(OCC(O)COc2ccc(Cl)cc2)cc1 (stereo not drawn) [Compound 8] = 52.1
• CC(C)(C)c1ccc(OCC(O)COc2ccc(C=CC(=O)OCCO)cc2)cc1 (stereo not drawn) [Compound 50] = 84.2
• O=C(O)C=Cc1ccc(OCC(O)COc2ccc(Cl)cc2)cc1 (stereo not drawn) [Compound 55] = 49.9
• COC(=O)C=Cc1ccc(OCC(O)CSc2ccc(Cl)cc2)cc1 (stereo not drawn) [Compound 40] = 59.4
• O=C(OCCO)c1ccc(OCC(O)CNc2ccc(Cl)cc2)cc1 (stereo not drawn) [Compound 52] = 53.9
• COC(=O)CCc1ccc(OCC(O)COc2ccc(C(C)(C)C)cc2)cc1 (stereo not drawn) [Compound 22] = 79
• COC(=O)c1ccc(OCC(COc2ccc(Cl)cc2)OC(=O)c2cccnc2)cc1 (stereo not drawn) [Compound 95] = 63.8
• COC(=O)c1ccc(OCC(O)CSc2ccc(C(C)(C)C)cc2)cc1 (stereo not drawn) [Compound 43] = 71

====

- Tested on: serum lipids
- protocol.details: Lipid-lowering action in normolipemic rats
- Assay type: in vivo
- test.parameters: Rattus norvegicus, 72 h; 4 × 100 mg/kg oral over 3 days, male Wistar rats, vs controls, X ± Sx; read-out: % Lowering TG (triglycerides)
measure: inhibition in vivo at 100 mg/kg

* CCOC(=O)C=Cc1ccc(OCC(O)COc2ccc(Cl)cc2)cc1 (stereo not shown) | 77.4%
* CCCOC(=O)C=Cc1ccc(OCC(O)COc2ccc(Cl)cc2)cc1 (stereo not shown) | 67%
* COC(=O)c1ccc(OCC(O)CNc2ccc(C(C)(C)C)cc2)cc1 (stereo not shown) | 79.2%
* O=C(CCc1ccc(OCC(O)COc2ccc(Cl)cc2)cc1)NO (stereo not shown) | 84.8%
* COC(=O)c1ccc(NCC(O)COc2ccc(Cl)cc2)cc1 (stereo not shown) | 69.3%
* COC(=O)c1ccc(OCC(O)CSc2ccc(Cl)cc2)cc1 (stereo not shown) | 53%
* O=C(O)c1ccc(OCC(O)COc2ccc(Cl)cc2)cc1 (stereo not shown) | 83.6%

====

- System: serum lipids
- protocol.details: Lipid-lowering action in normolipemic rats
- Assay type: in vivo
- test.parameters: Rattus norvegicus, 72 h; 4 × 100 mg/kg oral over 3 days, male Wistar rats, vs controls, X ± Sx; read-out: % Lowering TG (triglycerides)
Lab note: compare inhibition in vivo at 100 mg/kg against 70%. Equal or greater, write true. Smaller, write false.

* CC(C)(C)c1ccc(OCC(O)COc2ccc(C(=O)O)cc2)cc1 (stereo not drawn) | false
* CC(C)(C)c1ccc(OCC(O)COc2ccc(C=CC(=O)O)cc2)cc1 (stereo not drawn) | true
* COC(=O)c1cccc(OCC(O)COc2ccc(Cl)cc2)c1 (stereo not drawn) | true
* CC(C)(C)c1ccc(OCC(O)CNc2ccc(C(=O)O)cc2)cc1 (stereo not drawn) | true
* COC(=O)c1ccc(OCC(O)CNc2ccc(Cl)cc2)cc1 (stereo not drawn) | true
* CC(C)(C)c1ccc(SCC(O)COc2ccc(C=CC(=O)O)cc2)cc1 (stereo not drawn) | false
* O=C(O)c1cccc(OCC(O)COc2ccc(Cl)cc2)c1 (stereo not drawn) | true
* CCCOC(=O)C=Cc1ccc(OCC(O)COc2ccc(C(C)(C)C)cc2)cc1 (stereo not drawn) | true

====

- System: serum lipids
- protocol.details: Lipid-lowering action in normolipemic rats
- Type: in vivo
- test.parameters: Rattus norvegicus, 72 h; 4 × 100 mg/kg oral over 3 days, male Wistar rats, vs controls, X ± Sx; read-out: % Lowering TG (triglycerides)
- Procedure: Lipid-lowering action was tested on groups of 10 male Wistar rats (Ivanovas-Kisslegg), weight 200-220 g, normolipemic, or ordinary ration ("ssniff" complete feed). […] Serum lipids were determined with a Technicon autoanalyzer. […] Quantitative analysis for triglycerides (TG) was performed by Eggstein and Kreutz's enzyme method (Klin. Wschr. 44, 262, 1966), modified for autoanalyzer. Lipid lowering effect is expressed as percent lowering of total cholesterol and triglycerides compared to controls.
measure: inhibition in vivo at 100 mg/kg (%)

• O=C(OCc1cccnc1)c1ccc(OCC(O)COc2ccc(Cl)cc2)cc1 (stereo not shown) = 81.4
• CC(C)OC(=O)c1cccc(OCC(O)COc2ccc(Cl)cc2)c1 (stereo not shown) = 73.2
• CCOC(=O)c1ccc(OCC(O)COc2ccc(Cl)cc2)cc1 (stereo not shown) = 60.2
• CC(C)(C)c1ccc(NCC(O)COc2ccc(C(=O)O)cc2)cc1 (stereo not shown) = 75.1
• COCCOC(=O)c1ccc(OCC(O)COc2ccc(C(C)(C)C)cc2)cc1 (stereo not shown) = 76.1
• CC(C)(C)c1ccc(SCC(O)COc2ccc(C(=O)O)cc2)cc1 (stereo not shown) = 71.6
• COC(OC)c1ccc(OCC(O)COc2ccc(C(C)(C)C)cc2)cc1 (stereo not shown) = 84
• CCOC(=O)C(C)(C)Oc1ccc(Cl)cc1 [clofibrate, reference compound] = 50.4
• C=CCOC(=O)C=Cc1ccc(OCC(O)COc2ccc(Cl)cc2)cc1 (stereo not shown) = 40.2
• COCCOC(=O)C=Cc1ccc(OCC(O)COc2ccc(Cl)cc2)cc1 (stereo not shown) = 57.8
• CC(C)(C)c1ccc(OCC(O)COc2ccc(C3OCCO3)cc2)cc1 (stereo not shown) = 91.6
• CCOC(=O)c1ccc(NCC(O)COc2ccc(Cl)cc2)cc1 (stereo not shown) = 63.6
• COC(=O)c1ccc(OCC(O)COc2ccc(Cl)cc2)cc1 (stereo not shown) = 63.8
• CC(C)(C)c1ccc(NCC(O)COc2ccc(C=CC(=O)O)cc2)cc1 (stereo not shown) = 69.7
• COC(=O)CCc1ccc(OCC(O)COc2ccc(Cl)cc2)cc1 (stereo not shown) = 87.9
• COC(OC)c1ccc(OCC(O)CSc2ccc(Cl)cc2)cc1 (stereo not shown) = 74
• CN(C)CCOC(=O)c1ccc(OCC(O)COc2ccc(Cl)cc2)cc1 (stereo not shown) = 72.5
• CC(C)(C)c1ccc(OCC(O)COc2ccc(C(=O)OCCO)cc2)cc1 (stereo not shown) = 85.5
• CC(C)(C)c1ccc(OCC(O)COc2ccc(CCC(=O)O)cc2)cc1 (stereo not shown) = 91.9

====

inhibition in vivo at 100 mg/kg values by entry
- Tested on: serum lipids
- protocol.details: Lipid-lowering action in normolipemic rats
- Assay type: in vivo
- test.parameters: Rattus norvegicus, 72 h; 4 × 100 mg/kg oral over 3 days, male Wistar rats, vs controls, X ± Sx; read-out: % Lowering TG (triglycerides)
measure: inhibition in vivo at 100 mg/kg

• O=C(OCCCl)c1ccc(OCC(O)COc2ccc(Cl)cc2)cc1 (stereo not drawn) = 83.8%
• CC(C)OC(=O)c1ccc(OCC(COc2ccc(Cl)cc2)OC(=O)c2cccnc2)cc1 (stereo not drawn) = 74%
• CC(C)OC(=O)c1ccc(OCC(O)COc2ccc(C(C)(C)C)cc2)cc1 (stereo not drawn) = 72.9%
• CCOC(OCC)c1ccc(OCC(O)COc2ccc(Cl)cc2)cc1 (stereo not drawn) = 68%
• O=C(O)CCc1cccc(OCC(O)COc2ccc(Cl)cc2)c1 (stereo not drawn) = 71.3%
• O=C(O)C=Cc1cccc(OCC(O)COc2ccc(Cl)cc2)c1 (stereo not drawn) = 61.8%
• O=C(O)c1ccc(NCC(O)COc2ccc(Cl)cc2)cc1 (stereo not drawn) = 54.1%
• O=C(O)c1ccc(OCC(O)CSc2ccc(Cl)cc2)cc1 (stereo not drawn) = 55.8%
• C=CCOC(=O)c1ccc(OCC(O)COc2ccc(C(C)(C)C)cc2)cc1 (stereo not drawn) = 83.4%

====

- Test system: serum lipids
- protocol.details: Lipid-lowering action in normolipemic rats
- Type: in vivo
- test.parameters: Rattus norvegicus, 72 h; 4 × 100 mg/kg oral over 3 days, male Wistar rats, vs controls, X ± Sx; read-out: % Lowering TG (triglycerides)
- Protocol: Lipid-lowering action was tested on groups of 10 male Wistar rats (Ivanovas-Kisslegg), weight 200-220 g, normolipemic, or ordinary ration ("ssniff" complete feed). […] Serum lipids were determined with a Technicon autoanalyzer. […] Quantitative analysis for triglycerides (TG) was performed by Eggstein and Kreutz's enzyme method (Klin. Wschr. 44, 262, 1966), modified for autoanalyzer. Lipid lowering effect is expressed as percent lowering of total cholesterol and triglycerides compared to controls.
inhibition in vivo at 100 mg/kg values by entry
measure: inhibition in vivo at 100 mg/kg (%)

* COC(=O)c1ccc(OCC(CSc2ccc(Cl)cc2)OC(=O)c2cccnc2)cc1 (stereo not drawn) [Compound 104] | 81.1
* CC(C)OC(=O)c1ccc(OCC(O)COc2ccc(Cl)cc2)cc1 (stereo not drawn) [Compound 5] | 54.6
* O=C(O)C=Cc1ccc(OCC(O)CSc2ccc(Cl)cc2)cc1 (stereo not drawn) [Compound 77] | 77.8
* O=C(O)CCc1ccc(OCC(O)COc2ccc(Cl)cc2)cc1 (stereo not drawn) [Compound 56] | 76.7
* CC(C)OC(=O)C=Cc1ccc(OCC(O)COc2ccc(Cl)cc2)cc1 (stereo not drawn) [Compound 13] | 79.7
* COC(=O)C=Cc1cccc(OCC(O)COc2ccc(Cl)cc2)c1 (stereo not drawn) [Compound 14] | 64.8
* COC(=O)C=Cc1ccc(OCC(O)CNc2ccc(C(C)(C)C)cc2)cc1 (stereo not drawn) [Compound 37] | 71.9
* O=C(O)c1ccc(OCC(O)CNc2ccc(Cl)cc2)cc1 (stereo not drawn) [Compound 65] | 72.9
* CC(C)(C)c1ccc(OCC(O)CNc2cccc(C(=O)O)c2)cc1 (stereo not drawn) [Compound 71] | 58.4
